- systemName: recombinant human PDE3A (Homo sapiens (Human))
- Sequence (Q14432 669-1141 limits assumed): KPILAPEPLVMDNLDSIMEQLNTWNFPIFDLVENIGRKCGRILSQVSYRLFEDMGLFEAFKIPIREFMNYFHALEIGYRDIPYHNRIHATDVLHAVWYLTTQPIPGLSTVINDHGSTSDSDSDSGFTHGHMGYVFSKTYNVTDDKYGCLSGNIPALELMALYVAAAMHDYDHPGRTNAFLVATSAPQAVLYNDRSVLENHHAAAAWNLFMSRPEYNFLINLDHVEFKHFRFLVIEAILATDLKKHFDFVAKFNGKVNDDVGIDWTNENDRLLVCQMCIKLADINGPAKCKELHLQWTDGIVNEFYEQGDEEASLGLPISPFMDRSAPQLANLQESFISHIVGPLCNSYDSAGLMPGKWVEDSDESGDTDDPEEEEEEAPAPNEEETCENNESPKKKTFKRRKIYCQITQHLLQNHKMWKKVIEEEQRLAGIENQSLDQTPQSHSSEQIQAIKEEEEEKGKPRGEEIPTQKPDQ
- measurementProtocol: In vitro inhibitory activity against PDE 3A enzyme (fluorescence polarization)
- testContext: 1 μM cAMP
resultType: IC50 (nM)
Your answer is read as nM, so omit the unit and give the number.

Consider the worked cases shown below.
CCOc1cc2c(cc1OC)-c1c/c(=N\c3c(C)cc(C)cc3C)n(CCNC(=O)c3cnn[nH]3)c(=O)n1CCC2; 0.03
CCOc1cc2c(cc1OC)-c1c/c(=N\c3c(C)cc(C)cc3C)n(CCNC(=O)c3cnc[nH]3)c(=O)n1CCC2; 0.3
CCOc1cc2c(cc1OC)-c1c/c(=N\c3c(C)cc(C)cc3C)n(CCNc3nc[nH]n3)c(=O)n1CCC2; 0.63
CCOc1cc2c(cc1OC)-c1c/c(=N\c3c(C)cc(C)cc3C)n(CCNC(=O)c3cnn[nH]3)c(=O)n1CCO2; 0.57
CCOc1cc2c(cc1OC)-c1c/c(=N\c3c(C)cc(C)cc3C)n(CCNC(=O)c3nnc[nH]3)c(=O)n1CCC2; 0.1

# input Look up and report IC50, with recombinant human PDE3A (Homo sapiens (Human)) as system, for CCOc1cc2c(cc1OC)-c1c/c(=N\c3c(C)cc(C)cc3C)n(CCNC(=O)c3ccn[nH]3)c(=O)n1CCO2
# output 0.5

# input Look up and report IC50, with recombinant human PDE3A (Homo sapiens (Human)) as system, for CCOc1cc2c(cc1OC)-c1c/c(=N\c3c(C)cc(C)cc3C)n(CCNC(=O)c3ccn[nH]3)c(=O)n1CCC2
# output 1.1

###

- systemName: recombinant human PDE4B (Homo sapiens (Human), UniProt Q07343)
- Sequence (Q07343 305-736 limits assumed): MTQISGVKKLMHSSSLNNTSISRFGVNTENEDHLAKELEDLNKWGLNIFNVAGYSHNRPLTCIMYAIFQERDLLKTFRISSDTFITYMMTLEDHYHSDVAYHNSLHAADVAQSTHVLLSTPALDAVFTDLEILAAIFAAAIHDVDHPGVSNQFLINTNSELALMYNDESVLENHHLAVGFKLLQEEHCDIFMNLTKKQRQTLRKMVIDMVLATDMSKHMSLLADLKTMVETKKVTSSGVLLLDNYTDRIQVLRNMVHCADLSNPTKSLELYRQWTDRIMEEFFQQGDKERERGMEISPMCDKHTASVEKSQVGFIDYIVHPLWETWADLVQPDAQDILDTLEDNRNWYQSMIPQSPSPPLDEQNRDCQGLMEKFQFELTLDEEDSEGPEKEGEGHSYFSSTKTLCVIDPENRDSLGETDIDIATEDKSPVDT
- measurementProtocol: In vitro inhibitory activity against PDE 4B enzyme (fluorescence polarization)
- testContext: 1 μM cAMP
Quick rule for you: IC50 under 300 pM gets class 1, anything else gets class 0.

CCOc1cc2c(cc1OC)-c1c/c(=N\c3c(C)cc(C)cc3C)n(CCNC(=O)c3ncco3)c(=O)n1CC2 [WX019]; class 0

# input Given the entry CCOc1cc2c(cc1OC)-c1c/c(=N\c3c(C)cc(C)cc3C)n(CCNC(=O)c3ccn[nH]3)c(=O)n1CC2 [WX018] , would its reported IC50 be below 300 pM?
# output class 1

# input Given the entry CCOc1cc2c(cc1OC)-c1c/c(=N\c3c(C)cc(C)cc3C)n(CCNC(=O)c3ncc[nH]3)c(=O)n1CC2 [WX017] , would its reported IC50 be below 300 pM?
# output class 0

# input Given the entry CCOc1cc2c(cc1OC)-c1c/c(=N\c3c(C)cc(C)cc3C)n(CCNC(=O)c3[nH]nnc3OC)c(=O)n1CC2 [WX026] , would its reported IC50 be below 300 pM?
# output class 0

# input Given the entry CCOc1cc2c(cc1OC)-c1c/c(=N\c3c(C)cc(C)cc3C)n(CCNC(=O)c3cnc[nH]3)c(=O)n1CC2 [WX021] , would its reported IC50 be below 300 pM?
# output class 0

# input Given the entry CCOc1cc2c(cc1OC)-c1c/c(=N\c3c(C)cc(C)cc3C)n(CCC(=O)Nc3cn[nH]c3)c(=O)n1CC2 [WX057] , would its reported IC50 be below 300 pM?
# output class 0

# input Given the entry CCOc1cc2c(cc1OC)-c1c/c(=N\c3c(C)cc(C)cc3C)n(CCNC(=O)c3cnn[nH]3)c(=O)n1CCO2 [WX053] , would its reported IC50 be below 300 pM?
# output class 0

# input Given the entry CCOc1cc2c(cc1OC)-c1c/c(=N\c3c(C)cc(C)cc3C)n(CCNC(=O)c3cnn[nH]3)c(=O)n1CC2 [WX016] , would its reported IC50 be below 300 pM?
# output class 1

# input Given the entry CCOc1cc2c(cc1OC)-c1c/c(=N\c3c(C)cc(C)cc3C)n(CCNC(=O)c3nnc[nH]3)c(=O)n1CCC2 [WX047] , would its reported IC50 be below 300 pM?
# output class 1

# input Given the entry CCOc1cc2c(cc1OC)-c1c/c(=N\c3c(C)cc(C)cc3C)n(CCNc3nc[nH]n3)c(=O)n1CCC2 [WX004] , would its reported IC50 be below 300 pM?
# output class 1

# input Given the entry CCOc1cc2c(cc1OC)-c1c/c(=N\c3c(C)cc(C)cc3C)n(CCC(=O)Nc3ncco3)c(=O)n1CC2 [WX056] , would its reported IC50 be below 300 pM?
# output class 0
